Biological target: human ACVR2A (human, UniProt P27037 20-135, limits assumed); further: test concentration or dose not given here
Sequence (P27037 20-135 limits assumed): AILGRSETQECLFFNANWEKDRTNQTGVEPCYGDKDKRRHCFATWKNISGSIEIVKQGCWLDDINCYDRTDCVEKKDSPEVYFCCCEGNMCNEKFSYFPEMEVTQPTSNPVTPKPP
Assay: ELISA
Property Name: optical density (OD)
Expressed in OD, but write only the number.

>>> observed_measurement("376_C06 (antibody, V domains shown, VH/VL only) VH: EVQLLESGGGLVQPGGSLRLSCAASGFTFSSYGMNWVRQAPGKGLEWVAGINYNGGYTSYADSVKGRFTISRDNSKNTLYLQMNSLRAEDTAVYYCARSATWHDTALDYWGQGTLVTVSS VL: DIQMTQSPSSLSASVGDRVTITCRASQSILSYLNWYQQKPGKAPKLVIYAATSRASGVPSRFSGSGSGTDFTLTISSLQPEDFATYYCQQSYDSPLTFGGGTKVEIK")
3.49
>>> observed_measurement("365_F08 (antibody, V domains shown, VH/VL only) VH: EVQLLESGGGLVQPGGSLRLSCAASGFTFDDYGMNWVRQAPGKGLEWVANINYNGGYTSYADSVKGRFTISRDNSKNTLYLQMNSLRAEDTAVYYCARSATWHDTHLDYWGQGTLVTVSS VL: DIQMTQSPSSLSASVGDRVTITCRASQSILSYVNWYQQKPGKAPKLLIYAATSRHSGVPSRFSGSGSGTDFTLTISSLQPEDFATYYCQQSYSLPLTFGGGTKVEIK")
2.25

In plain terms, 369_E10 (antibody, V domains shown, VH/VL only) VH: EVQLLESGGGLVQPGGSLRLSCAASGFTFSSYSMNWVRQAPGKGLEWVSNINYNGGYKSYADSVKGRFTISRDNSKNTLYLQMNSLRAEDTAVYYCARSATWHDTALDYWGQGTLVTVSS VL: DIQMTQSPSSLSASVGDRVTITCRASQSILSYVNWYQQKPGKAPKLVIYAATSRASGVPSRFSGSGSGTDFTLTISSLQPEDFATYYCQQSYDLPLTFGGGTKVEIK has a documented optical density of 3.36
